# TESTED TARGET: Calmodulin-1 (Homo sapiens)
# ASSAY: CALM1 binders on microarrays, EGTA buffer, profiling panel, biochemical, small-molecule microarray, Cy5-labelled CALM1 (AID 1111);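 also: labelled calmodulin applied in Tris saline Tween buffer holding calcium plus EGTA and DTT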
# ASSAY SETUP: Cy5-CALM1 binding fluorescence, higher = more signal
ATTRIBUTE MEASURED: composite z-score
Numbers only.

// below: answered compounds
COCCOC(=O)N1C(=O)[C@@]2(c3cc(C#CC4=CCCCC4)ccc31)[C@H](c1ccccc1OCCO)N1[C@H](c3ccccc3)[C@H](c3ccccc3)OC(=O)[C@H]1[C@@H]2C(=O)N1CCc2cc(OC)c(OC)cc2C1 : -0.141
C=CC[C@@]12N=C(c3ccc(OCCCO)cc3)O[C@@H]1c1ccccc1N(CCS(=O)(=O)c1ccccc1)C2=O : 1.69
[N-]=[N+]=NCc1ccccc1C[C@@]1(C(N)=O)N=C(c2ccc(OCCCO)cc2)O[C@@H]1c1ccccc1CN=[N+]=[N-] : 1.37
C=C(CCCC)/C(=C/C[C@@H](OC(C)=O)c1ccc(CO)o1)c1cc(C(=O)OC)ccc1OC : 0.723
CCOC(=CC(=O)OC)CC(O)c1cccc(Cl)c1 (configuration not stated) : -0.265
CCCNC(=O)[C@@]1(c2ccc([N+](=O)[O-])cc2)CC(=O)N(C2CCCCC2)[C@@H]1c1ccc(CO)cc1I : 0.647

Kindly review the next compound as well.
Please supply the value of reported composite z-score for the item CO[C@H]1O[C@H](CO)[C@@H](OC(=O)c2ccc(Br)cc2)[C@@H]2OC(=O)[C@@H](Cc3ccc4ccccc4c3)C/C=C/C[C@H](Cc3ccc4ccccc4c3)C(=O)O[C@@H]12
1.29
